Quick reference: EC50 of the listed items.
- Target entity: T1, Cynomolgus macaque ASGR1 on CHO-S cells (Cynomolgus macaque)
- T1 construct: whole, on cells; also called Cynomologous ASGR1
- Method description: Guava flow cytometry on CHO-S cells expressing cynomolgus ASGR1 (repeat of Table 15)
Give the value in nM but do not write nM after it.

Past entries and their recorded results:
{"Binder": "J4F (antibody, V domains shown, parental mouse hybridoma antibody; also called mAb J4F) VH: QVQLQQSGDDLVKPGASVKLSCKASGYTFTSYWINWIKQRPGQGLEWIGRIVPGSGSTYYNEMFKDKATLTVDTSSSTAYIQLSSLSSEDSAVYFCARKPNFDVWGAGTTVTVSS VL: DIVMTQSQKFMSTSVGDRVSVTCKASQNVGTNVAWYQQKPGQSPKAVIYSASYRFSGVPDRLTGSGSGTDFTLTITNVQSEDLAEYFCQQYNSYPLTFGAGTKLELK", "Units": "nM", "EC50": 0.67}
{"Binder": "K2E (antibody, V domains shown, parental mouse hybridoma antibody; also called mAb K2E) VH: QVQLQQSAAELARPGASVKMSCKASGYTFTSYTMHWVKQRPGQGLEWIGYISPSSGYTEYNQKFKDKTTLTADKSSSTAYMQLSSLTSEDSAVYYCARKFDYWGQGTTLTVSS VL: DIKMTQSPSSMYASLGERVTITCKASQDINSYLSWFQQKPGKSPKTLIYRANRLVDGVPSRFSGSGSGQDFSLTISSLEYEDMGIYYCLQYDEFPFTFGSGTKLEIK", "Units": "nM", "EC50": 0.68}
{"Binder": "hzH8K-1 (antibody, IgG1, V domains shown, IgG1, kappa) VH: QVQLQESGPGLVKPSQTLSLTCTVSGGSISSDYAWNWIRQHPGKGLEWIGYRSYRGSTSYNPSLKSRVTISVDTSKNQFSLKLSSVTAADTAVYYCARRGYYGSSSHWYFDVWGQGTTVTVSS VL: DIQMTQSPSSLSASVGDRVTITCRASENIYSYLAWYQQKPGKAPKLLIYNAKTLAEGVPSRFSGSGSGTDFTLTISSLQPEDFATYYCQHHYGTPLTFGGGTKVEIK", "Units": "nM", "EC50": 0.66}

Problem: Quick one: EC50 of G2D (antibody, V domains shown, parental mouse hybridoma antibody; also called mAb G2D) VH: EVQLQQSGPELVKPGASVKISCKASGYSFTGYYMHWVKQSHVKSLEWIGRINPNNGATNYNQNFKDKASLTVDKSSSTAYMEFHSLTSEDSAVYYCTSVNFYYWGQGTTLTVSS VL: DIKMTQSPSSMYASLGERVTITCKASQVINSYLSWFQQKPGKSPETLIYRANTLVDGVPSRFSGSGSGQDYSLTISSLEYEDLGIYYCLQYAEFPYTFGGGTKLEIK ?
Result: 0.47

Problem: Quick one: EC50 of hzL4L-7 (antibody, IgG1, V domains shown, IgG1, kappa) VH: QVQLQESGPGLVKPSQTLSLTCTVSGYSISSDYAWNWIRQHPGKGLEWIGYISYSGSTRYNPSLKSRVTITRDTSKNQFSLKLSSVTAADTAVYYCARRYRYDEGYGMDYWGQGTTVTVSS VL: DIQMTQSPSSLSASVGDRVTITCRASENIYSNLAWYQQKPGKAPKLLIYAATNLADGVPSRFSGSGSGTDFTLTISSLQPEDFATYYCQHFWGTPPWTFGGGTKVEIK ?
Result: 0.39
